Below: a set of entries, each annotated with reported Inhibition of the binding of indicated biotin-Mab to sGPC3 core (%).
- Assay system: T1, soluble form of GPC3 core protein (human, UniProt P51654 25-563)
- T1 construct: not shown: His tag added to the C-terminus
- T1 sequence (P51654 25-563 S495A/S509A, form in doubt): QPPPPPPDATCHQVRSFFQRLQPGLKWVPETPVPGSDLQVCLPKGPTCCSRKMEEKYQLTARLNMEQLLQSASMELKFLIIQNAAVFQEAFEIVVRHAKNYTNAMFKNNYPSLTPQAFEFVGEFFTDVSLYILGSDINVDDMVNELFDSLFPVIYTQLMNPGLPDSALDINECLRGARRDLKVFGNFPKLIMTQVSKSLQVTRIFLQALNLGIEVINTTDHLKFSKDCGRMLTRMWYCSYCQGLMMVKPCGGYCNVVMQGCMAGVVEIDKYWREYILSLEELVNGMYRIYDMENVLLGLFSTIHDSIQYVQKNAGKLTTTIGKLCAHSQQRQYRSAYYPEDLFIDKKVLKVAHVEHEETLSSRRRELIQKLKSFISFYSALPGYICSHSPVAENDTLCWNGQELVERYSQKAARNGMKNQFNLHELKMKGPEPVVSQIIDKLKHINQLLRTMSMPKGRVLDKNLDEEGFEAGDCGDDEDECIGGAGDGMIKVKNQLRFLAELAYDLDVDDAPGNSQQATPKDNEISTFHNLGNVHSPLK
- Assay summary: competitive ELISA on coated soluble GPC3 core protein; labelled competitor biotin-M11F1;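 note: Biotin-labelled antibody added as 10 µL at 10 µg/mL for 1 h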
Measured quantity: Inhibition of the binding of indicated biotin-Mab to sGPC3 core (%)

[
  {
    "Binder": "M11F1 (antibody, V domains shown, Mouse monoclonal from hybridoma) VH: QVTLKESGPGILQPSQTLSLTCSFSGFSLSIYGMGVGWIRQPSGKGLEWLANIWWNDDKYYNSALKSRLTISKDTSNNQVFLKISSVDTADTATYYCAQIGYFYFDYWGQGTTLTVSS VL: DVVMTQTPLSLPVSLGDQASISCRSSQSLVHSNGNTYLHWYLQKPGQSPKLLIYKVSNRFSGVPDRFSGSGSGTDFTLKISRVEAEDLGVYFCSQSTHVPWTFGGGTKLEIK",
    "Experimental result": "81.8%"
  },
  {
    "Binder": "M18D4 (antibody, human IgG1, kappa, V domains shown, Mouse monoclonal from hybridoma) VH: EVQLQQSGTVLARPGASVKMSCKASGYTFTGYWMRWVKQRPGQGLEWIGAIYPGNSDTTYNQKFKGKAKLTAVTSVSTAYMELSSLTNEDSAVYYCSRSGDLTGGFAYWGQGTLVTVST VL: DIVMTQAAFSNPVTLGTSTSISCRSSKSLLHSNGITYLYWYLQKPGQSPQLLIYQMSNLASGVPDRFSSSGSGTDFTLRISRVEAEDVGVYYCAQNLELPYTFGSGTKLEIKR",
    "Experimental result": "-0.3%"
  },
  {
    "Binder": "M5B9 (antibody, V domains shown, Mouse monoclonal from hybridoma) VH: EVQLQQSGTVLARPGASVKMSCKASGYTFTGYWMHWVKQRPGQGLEWIGAIYPGNSDTNYNQKFKGKAKLTAVTSASTAYMELSSLTNEDAAVYHCTRSGDLTGGLAYWGQGTLVTVSA VL: DIVMTQAAFSNPVTLGTSASISCRSSKSLLHSNGITYLYWFLQKPGQSPQLLIYQMSNLASGVPDRFSSSGSGTDFTLRISRVEAEDVGVYYCAQNLELPYTFGSGTKLEIK",
    "Experimental result": "5.3%"
  }
]
